Assay: P. falciparum Dd2 growth inhibitors, primary screen, SYBR Green fluorescence, single dose replicates (AID 1159554)
Conditions: 72 h, at 10 µM
Among all 94,000 compounds or so, about 2,100 (2.2%) were called active. No stated cut-off is given here; in the data, active means activity change below about -80%; inconclusive means no clear call, values can overlap the other calls; inactive means above that. Only a selection was taken, and actives are over-represented in it overall.
Pick from T (active), F (inactive) when you respond.

Assay result, entry C[C@@H]1CN([C@@H](C)CO)C(=O)c2cccc(NC(=O)Nc3ccc(F)cc3)c2O[C@@H]1CN(C)C(=O)Nc1ccccc1 — outcome? F

Assay result, entry CCC(=O)Nc1ccc2c(c1)C(=O)N(C)C[C@H](OC)[C@H](C)CN(C(=O)c1ccccn1)[C@@H](C)CO2 — outcome? F

Assay result, entry O=C(C[C@H]1CC[C@@H]2[C@H](COC[C@@H](O)CN2Cc2cc(F)cc(F)c2)O1)NC1CCC1 — outcome? F

Assay result, entry COc1ccc(NC(=O)N(C)C[C@H]2Oc3c(NC(=O)NC(C)C)cccc3C(=O)N([C@@H](C)CO)C[C@H]2C)cc1 — outcome? T

Assay result, entry COc1cccc(NC(=O)C[C@@H]2CC[C@@H]3[C@H](COc4ccc(NC(=O)C5CCOCC5)cc4C(=O)N3C)O2)c1 — outcome? F

Assay result, entry CO[C@H]1CN(C)C(=O)c2cc(NC(=O)c3ccc4c(c3)OCO4)ccc2OC[C@@H](C)N(CCC(F)(F)F)C[C@H]1C — outcome? F

Assay result, entry COc1ccc2c3c(n(C)c2c1)[C@H](CO)N(C(=O)C1CCCC1)CC31CCN(C(=O)c2ccncc2)CC1 — outcome? F

Assay result, entry C[C@@H]1CCCCO[C@@H](CN(C)S(=O)(=O)c2cn(C)cn2)[C@H](C)CN([C@@H](C)CO)C(=O)c2cc(NC(=O)Nc3ccccc3)ccc2O1 — outcome? F

Assay result, entry C[C@@H]1CN([C@H](C)CO)C(=O)c2cccc(NC(=O)Nc3cccc4ccccc34)c2O[C@@H]1CN(C)C(=O)Nc1ccc(F)cc1 — outcome? T

Assay result, entry CCS(=O)(=O)N1CC(=O)N2[C@H](CO)[C@@H](c3ccc(C#CC4CCCC4)cc3)[C@@H]2C1 — outcome? F

Assay result, entry COc1ccc(NC(=O)Nc2cccc3c2O[C@H](CN(C)C(=O)Nc2ccc(F)cc2)[C@@H](C)CN([C@@H](C)CO)C3=O)cc1 — outcome? F

Assay result, entry COc1ccc2c3c([nH]c2c1)[C@H](CO)N(Cc1nccs1)CC31CCN(Cc2ccncc2)CC1 — outcome? T

Assay result, entry O=C(C[C@@H]1CC[C@H]2[C@@H](COC[C@@H](O)CN2CC2CC2)O1)NCc1ccc(Cl)cc1 — outcome? F

Assay result, entry COc1ccc2c3c([nH]c2c1)[C@@H](CO)N(C(=O)Cc1ccccc1)CC31CCN(C)CC1 — outcome? F

Assay result, entry O=C(C[C@@H]1CC[C@@H](NS(=O)(=O)c2ccc(F)cc2)[C@@H](CO)O1)NCCc1ccncc1 — outcome? F

###

Assay: P. falciparum Dd2 growth inhibitors, primary screen, SYBR Green fluorescence, single dose replicates (AID 1159554)
Conditions: 72 h, at 10 µM, active compounds read low
Screen size: about 94,000 compounds; about 2,100 (2.2%) were called active. This excerpt belongs to a sample that is enriched for actives.
activity change less than -30% is 1; activity change greater than or equal to -30% is 0.

Could you please tell me whether activity change recorded for CCC(=O)N1C[C@H](C)[C@H](OC)CN(C)C(=O)c2ccc(NC(=O)Nc3cccc(F)c3)cc2OC[C@@H]1C is less than -30%? 1

Could you please tell me whether activity change recorded for COc1ccc2c3c(n(C)c2c1)[C@@H](CO)N(C(=O)NC1CCCC1)CC31CCN(C(C)=O)CC1 is less than -30%? 0

Could you please tell me whether activity change recorded for CCC(=O)N(C)C[C@H]1Oc2cc(/C=C/c3ccccc3)ccc2S(=O)(=O)N([C@H](C)CO)C[C@@H]1C is less than -30%? 1

Could you please tell me whether activity change recorded for C[C@@H]1CN([C@@H](C)CO)S(=O)(=O)c2ccc(/C=C/c3ccccc3)cc2O[C@H]1CN(C)C(=O)C1CC1 is less than -30%? 1

Could you please tell me whether activity change recorded for CCC(=O)Nc1ccc2c(c1)C(=O)N(C)C[C@H](OC)[C@H](C)CN(Cc1ccccc1F)[C@H](C)CO2 is less than -30%? 0

Could you please tell me whether activity change recorded for CC(=O)N1Cc2cc(C(=O)NCc3cc(F)cc(F)c3)nc(-c3cccc(C4=CCCC4)c3)c2[C@@H]1CCO is less than -30%? 1

Could you please tell me whether activity change recorded for C[C@H]1CN([C@@H](C)CO)C(=O)c2cccc(NC(=O)c3ccc(-c4nccs4)cc3)c2O[C@H]1CN(C)Cc1ccc(C(=O)O)cc1 is less than -30%? 0

Could you please tell me whether activity change recorded for CCC(=O)N1C[C@H](C)[C@H](OC)CN(C)C(=O)c2cc(NC(=O)Nc3cccc(F)c3)ccc2OC[C@@H]1C is less than -30%? 1

Could you please tell me whether activity change recorded for C[C@@H]1CN([C@@H](C)CO)C(=O)c2cccc(NC(=O)c3ccc(-c4nccs4)cc3)c2O[C@@H]1CN(C)Cc1ccncc1 is less than -30%? 0

Could you please tell me whether activity change recorded for C[C@@H]1CCCCO[C@@H](CN(C)S(=O)(=O)c2cn(C)cn2)[C@@H](C)CN([C@@H](C)CO)C(=O)c2cc(NC(=O)Nc3ccc(C(F)(F)F)cc3)ccc2O1 is less than -30%? 1

Could you please tell me whether activity change recorded for C[C@@H]1CN([C@@H](C)CO)C(=O)c2cccc(NS(=O)(=O)c3cccs3)c2O[C@@H]1CN(C)CC1CC1 is less than -30%? 0

Could you please tell me whether activity change recorded for C[C@@H]1CN([C@H](C)CO)C(=O)c2cccc(NC(=O)c3cnccn3)c2O[C@@H]1CN(C)Cc1ccc(C(=O)Nc2ccccc2N)cc1 is less than -30%? 1

Could you please tell me whether activity change recorded for CNC(=O)C[C@@H]1CC[C@@H]2[C@H](COC[C@@H](O)CN2S(=O)(=O)c2ccccc2Cl)O1 is less than -30%? 0

Could you please tell me whether activity change recorded for O=C(Cc1ccncc1)N1C[C@@H]2N[C@H](C1)C2c1ccc(-c2ccc(F)cc2)cc1 (stereo not given in full) is less than -30%? 1

Could you please tell me whether activity change recorded for C[C@H](O)C#Cc1ccc2c(c1)O[C@@H](CN(C)C(=O)C1CC1)[C@H](C)CN([C@H](C)CO)S2(=O)=O is less than -30%? 0

Could you please tell me whether activity change recorded for C[C@@H]1CN([C@@H](C)CO)S(=O)(=O)c2ccc(C#Cc3ccccc3)cc2O[C@@H]1CN(C)C(=O)Nc1ccccc1 is less than -30%? 1

Could you please tell me whether activity change recorded for COc1ccc(C#Cc2ccc3c(c2)O[C@@H](CN(C)C(=O)Nc2cccc(OC)c2)[C@H](C)CN([C@H](C)CO)S3(=O)=O)cc1 is less than -30%? 1

Could you please tell me whether activity change recorded for O=C(N[C@H]1CC[C@@H](CCNS(=O)(=O)Cc2ccccc2)O[C@H]1CO)c1ccccc1F is less than -30%? 1

Could you please tell me whether activity change recorded for C[C@H]1CN([C@@H](C)CO)C(=O)c2cccc(NS(=O)(=O)c3cccs3)c2O[C@H]1CN(C)Cc1ccc(C(=O)Nc2ccccc2N)cc1 is less than -30%? 1

Could you please tell me whether activity change recorded for C[C@H](CO)N1C[C@H](C)[C@@H](CN(C)S(C)(=O)=O)Oc2c(NC(=O)c3ccc(-c4nccs4)cc3)cccc2C1=O is less than -30%? 0

Could you please tell me whether activity change recorded for CO[C@H]1CN(C)C(=O)c2ccc(NC(C)=O)cc2OC[C@@H](C)NC[C@H]1C is less than -30%? 0

Could you please tell me whether activity change recorded for CC(C)NC(=O)N1[C@@H]2CN(C(=O)Nc3ccc(F)cc3)c3ccccc3[C@@H]2[C@@H]1CO is less than -30%? 0

Could you please tell me whether activity change recorded for O=C(C[C@@H]1CC[C@@H]2[C@H](COC[C@@H](O)CN2Cc2cc(F)cc(F)c2)O1)NCc1cccc(F)c1 is less than -30%? 0

Could you please tell me whether activity change recorded for CO[C@H]1CN(C)C(=O)c2ccc(NC(=O)Nc3ccc4c(c3)OCO4)cc2OC[C@H](C)NC[C@H]1C is less than -30%? 0

Could you please tell me whether activity change recorded for CC(C)C(=O)Nc1ccc2c(c1)C(=O)N(C)[C@H]1CC[C@H](CC(=O)NCc3ccc(F)cc3)O[C@H]1CO2 is less than -30%? 0

Could you please tell me whether activity change recorded for CCC(=O)N(C)C[C@H]1Oc2cc(/C=C/c3ccccc3)ccc2S(=O)(=O)N([C@H](C)CO)C[C@H]1C is less than -30%? 0

Could you please tell me whether activity change recorded for C[C@@H]1CN([C@@H](C)CO)S(=O)(=O)c2ccc(/C=C/c3ccccc3)cc2O[C@H]1CN(C)Cc1ccccc1 is less than -30%? 1

Could you please tell me whether activity change recorded for C[C@H](CO)N1C[C@H](C)[C@H](CN(C)S(C)(=O)=O)Oc2c(NC(=O)c3ccc(-c4nccs4)cc3)cccc2C1=O is less than -30%? 0

Could you please tell me whether activity change recorded for C[C@H]1CN([C@@H](C)CO)S(=O)(=O)c2ccc(C#Cc3ccccc3)cc2O[C@@H]1CN(C)C(=O)C1CC1 is less than -30%? 1

Could you please tell me whether activity change recorded for C[C@@H]1CN([C@@H](C)CO)C(=O)c2cccc(NC(=O)c3ccc(-c4nccs4)cc3)c2O[C@H]1CN(C)Cc1ccc(Cl)c(Cl)c1 is less than -30%? 1
